Source listed as patent US7115624B1.

Reported Ki values for a set of compounds
- Study system: PTP1B (Homo sapiens, UniProt P18031)
- Sequence (P18031 1-321): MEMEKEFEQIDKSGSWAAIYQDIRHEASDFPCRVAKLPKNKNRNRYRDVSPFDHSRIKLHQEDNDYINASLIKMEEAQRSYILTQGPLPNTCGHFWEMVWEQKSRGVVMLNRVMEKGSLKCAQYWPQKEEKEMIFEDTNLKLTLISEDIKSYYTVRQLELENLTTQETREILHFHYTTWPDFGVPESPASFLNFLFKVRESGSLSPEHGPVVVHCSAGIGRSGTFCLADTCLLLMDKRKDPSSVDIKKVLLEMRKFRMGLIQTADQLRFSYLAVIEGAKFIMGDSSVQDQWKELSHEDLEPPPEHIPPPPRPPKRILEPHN
- Experiment notes: PTPase inhibition, p-nitrophenyl phosphate substrate, Ki
- Assay type: biochemical
- Condition: pH 5.5; read-out: Ki values, PTP1B
Numbers only; they are read as µM.

Consider the reported Ki for these compounds:
Which Ki value belongs to "O=C(O)C(=O)Nc1ccsc1C(=O)O" ?
61

Requested field: Ki. Item: "O=C(O)C(=O)Nc1sccc1C(=O)O"
62

Then this compound:
So what does the record say about Ki for "O=C(O)C(=O)Nc1sc2c(c1C(=O)O)CCNC2" ?
0.3

###

- Study system: CD45 (Homo sapiens)
- Sequence (P08575 599-1306 limits assumed, species assumed): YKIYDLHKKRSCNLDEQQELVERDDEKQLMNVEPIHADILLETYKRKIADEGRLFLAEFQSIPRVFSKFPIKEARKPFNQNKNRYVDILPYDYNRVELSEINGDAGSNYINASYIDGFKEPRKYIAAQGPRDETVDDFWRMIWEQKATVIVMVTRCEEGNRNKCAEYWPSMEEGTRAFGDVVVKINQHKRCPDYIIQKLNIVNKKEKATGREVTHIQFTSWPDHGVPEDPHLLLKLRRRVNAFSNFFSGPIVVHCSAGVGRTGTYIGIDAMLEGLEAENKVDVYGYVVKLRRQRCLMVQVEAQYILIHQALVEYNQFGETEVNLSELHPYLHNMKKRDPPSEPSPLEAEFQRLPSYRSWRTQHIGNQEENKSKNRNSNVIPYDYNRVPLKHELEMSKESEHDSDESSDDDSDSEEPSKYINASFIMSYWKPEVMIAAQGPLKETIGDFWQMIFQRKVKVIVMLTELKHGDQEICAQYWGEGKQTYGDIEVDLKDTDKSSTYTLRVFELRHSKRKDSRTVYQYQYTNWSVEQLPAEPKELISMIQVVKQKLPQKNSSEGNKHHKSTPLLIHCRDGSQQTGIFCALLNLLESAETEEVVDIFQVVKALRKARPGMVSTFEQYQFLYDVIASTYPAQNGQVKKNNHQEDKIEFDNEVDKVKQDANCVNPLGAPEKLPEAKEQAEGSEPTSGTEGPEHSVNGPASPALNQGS
- Experiment notes: PTPase inhibition, p-nitrophenyl phosphate substrate, Ki
- Format: biochemical
- Condition: pH 7; D1D2 (Table 3); read-out: Ki values, CD45 D1D2
Readout kind: pKi
Hey, just a heads up that pKi is the negative log base 10 of the concentration in molar.

# get_value(readout='pKi', item= COc1ccc2c(c1)C(=O)N(CC1OCCc3c1sc(NC(=O)C(=O)O)c3C(=O)O)C2=O (centres unmarked) )
3.42

Here's the next entry for you.
Param item = O=C(O)C(=O)Nc1sc2c(c1C(=O)O)CC(CN1C(=O)c3cccc(O)c3C1=O)OC2 (centres unmarked) ; retrieve measured pKi.
3.89

###

- Study system: TC-PTP (Homo sapiens, UniProt P17706)
- Sequence (P17706 5-275 limits assumed): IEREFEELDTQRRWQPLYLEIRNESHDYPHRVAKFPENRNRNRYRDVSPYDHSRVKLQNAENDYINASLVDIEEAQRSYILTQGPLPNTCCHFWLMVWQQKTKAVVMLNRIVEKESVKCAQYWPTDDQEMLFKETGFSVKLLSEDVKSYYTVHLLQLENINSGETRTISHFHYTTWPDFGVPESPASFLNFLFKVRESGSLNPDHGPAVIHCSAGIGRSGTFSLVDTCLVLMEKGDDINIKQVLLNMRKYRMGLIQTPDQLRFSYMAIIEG
Readout kind: pKi
Quick note: pKi means taking -log10 of the concentration in moles per liter.

Need pKi, item O=C(O)C(=O)Nc1sc2c(c1C(=O)O)CCOC2COC1=NS(=O)(=O)c2ccccc21 (stereo not shown) [Compound N]
6.22

###

- Study system: PTPε (Homo sapiens, UniProt P23469)
- Construct: PTPε D1
- Sequence (P23469 135-394 limits assumed): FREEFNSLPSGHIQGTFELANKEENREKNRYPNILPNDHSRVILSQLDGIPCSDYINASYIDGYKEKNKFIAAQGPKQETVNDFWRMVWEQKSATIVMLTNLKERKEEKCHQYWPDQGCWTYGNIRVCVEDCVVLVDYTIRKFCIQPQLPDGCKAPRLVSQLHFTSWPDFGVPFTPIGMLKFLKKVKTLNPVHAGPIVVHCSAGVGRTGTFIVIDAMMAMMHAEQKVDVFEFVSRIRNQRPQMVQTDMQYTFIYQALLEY
- Experiment notes: PTPase inhibition, p-nitrophenyl phosphate substrate, Ki
- Format: biochemical
- Condition: pH 7 (Table 6); read-out: Ki, PTP ε residue 48 Asn
Catalogue of Ki values

Look up Ki for this compound: CCOC(=O)N1Cc2sc(NC(=O)C(=O)O)c(C(=O)O)c2CC1CN1C(=O)c2ccccc2C1=O (centres unmarked)
380 µM

Others:
Suppose we examine the compound O=C(O)C(=O)Nc1sc2c(c1C(=O)O)CC(CN1C(=O)c3cccc(O)c3C1=O)NC2 (centres unmarked) ; what Ki value has been reported?
> 500 µM

###

- Study system: PTPβ (Homo sapiens)
- Sequence (P23467 1703-1963 limits assumed): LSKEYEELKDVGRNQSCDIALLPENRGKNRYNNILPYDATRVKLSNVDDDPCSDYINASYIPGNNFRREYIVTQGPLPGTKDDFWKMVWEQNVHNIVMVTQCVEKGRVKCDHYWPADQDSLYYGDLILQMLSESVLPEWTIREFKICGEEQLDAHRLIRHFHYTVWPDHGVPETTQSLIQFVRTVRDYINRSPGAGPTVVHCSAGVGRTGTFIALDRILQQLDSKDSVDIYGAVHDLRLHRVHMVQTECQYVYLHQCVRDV
- Experiment notes: PTPase inhibition, p-nitrophenyl phosphate substrate, Ki
- Assay type: biochemical
- Condition: pH 5.5; read-out: Ki values, PTPβ
Readout kind: pKi
Lab note — pKi values are minus log10 of concentrations in M.

Below, 4 compounds whose answers are already recorded.
Quick one: pKi for O=C(O)C(=O)Nc1ccsc1C(=O)O [Example 3-OTA] ?
3.80

What value of measured pKi is listed for O=C(O)C(=O)Nc1ccccc1C(=O)O [OBA, 2-(oxalyl-amino)-benzoic acid] ?
4.49

Please look up its pKi: O=C(O)C(=O)Nc1sccc1C(=O)O [Example 2-OTA]
4.74

Need pKi of O=C(O)C(=O)Nc1sc2c(c1C(=O)O)CCCC2 [Example 2-OBTA] , thanks.
4.85

Consider now this further compound.
Fill in: pKi of O=C(O)C(=O)Nc1sc2c(c1C(=O)O)CCNC2 [Example 2-OTPyA] is ___
3.82
